experimental-endpoint: logP

Solved entries:
[[record]]
item_smiles = "Cc1c(C=O)ssc1=S"
experimental_endpoint = "logP"
result_number = 2.87

[[record]]
item_smiles = "CC(=O)c1ssc(=O)c1-c1ccccc1"
experimental_endpoint = "logP"
result_number = 2.5

[[record]]
item_smiles = "CC(=O)c1ssc(=S)c1-c1ccccc1"
experimental_endpoint = "logP"
result_number = 3.31


[1] O=Cc1cc(=S)ss1
[2] CC(=O)c1cc(=O)ss1
Compare 1 and 2 by numeric logP and name the larger one. Record your answer as the label of the chosen record.
1

[P] O=Cc1ssc(=O)c1-c1ccccc1
[Q] O=Cc1cc(=O)ss1
Looking at P and Q , which one comes out lower in logP terms? Please respond with the label that marks your chosen entry.
Q
(Q: 1.81, P: 2.94)

* * *

assay: method code SF-AS, from DOI: 10.1007/s11095-005-4582-3, PMID: 15948031
experimental-endpoint: logP

[[record]]
item_smiles = "O=Cc1ssc(=S)c1-c1ccccc1"
result_number = 3.43

[[record]]
item_smiles = "O=Cc1ssc(=S)c1Cl"
result_number = 2.95

[[record]]
item_smiles = "CCc1c(C=O)ssc1=O"
result_number = 2.58

[[record]]
item_smiles = "O=Cc1ssc(=O)c1Cl"
result_number = 2.16

[[record]]
item_smiles = "CCc1c(C=O)ssc1=S"
result_number = 3.15


[I] Cc1c(C=O)ssc1=O
[II] COc1c(C=O)ssc1=S
Of I and II , which carries the smaller reported logP figure? Pick one and reply with its label.
I
(I: 1.62, II: 2.56)

* * *

experimental-endpoint: logP

[[record]]
item_smiles = "CC(=O)c1ssc(=O)c1C"
result_number = 1.58


[A] CC(=O)c1cc(=S)ss1
[B] CCc1c(C(C)=O)ssc1=S
Out of A and B , name the one with the higher logP. State your choice using its label.
B
